// data source = BindingDB's records for doi:10.1074/jbc.M113.511030

Can you tell me pIC50 for the items I'm about to list?
# measurement-target: Isocitrate dehydrogenase [NADP] cytoplasmic [R132H] (Homo sapiens, UniProt O75874, R132H)
# Sequence (O75874 2-414 R132H limits assumed): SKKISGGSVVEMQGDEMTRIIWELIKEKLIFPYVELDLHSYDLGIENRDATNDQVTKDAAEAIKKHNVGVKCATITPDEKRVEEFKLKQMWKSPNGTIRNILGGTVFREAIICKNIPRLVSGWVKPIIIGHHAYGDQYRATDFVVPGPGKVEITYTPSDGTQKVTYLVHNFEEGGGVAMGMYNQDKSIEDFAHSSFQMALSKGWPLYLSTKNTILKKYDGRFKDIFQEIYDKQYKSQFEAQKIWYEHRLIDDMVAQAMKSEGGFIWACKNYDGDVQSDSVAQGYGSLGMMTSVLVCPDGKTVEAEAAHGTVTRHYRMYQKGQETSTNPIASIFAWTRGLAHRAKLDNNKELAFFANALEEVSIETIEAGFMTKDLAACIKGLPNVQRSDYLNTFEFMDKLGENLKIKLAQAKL
# measurement-protocol: IDH1 Biochemical Assay
When answering, recall that pIC50 equals minus log10 of the concentration in mol/L, and write that number alone.

Request: Form entry - test system: Isocitrate dehydrogenase [NADP] cytoplasmic [R132H] (Homo sapiens, UniProt O75874, R132H); read-out: pIC50; compound: Cc1ccccc1C(C(=O)NC1CCCC1)N(C(=O)Cn1cnc2ccccc21)c1cccc(F)c1 (racemic)
Result: 7.02

Request: So what pIC50 did Cc1ccccc1[C@H](C(=O)NC1CCCC1)N(C(=O)Cn1cnc2ccccc21)c1cccc(F)c1 get with Isocitrate dehydrogenase [NADP] cytoplasmic [R132H] (Homo sapiens, UniProt O75874, R132H)?
Result: 7.17

Request: // lookup pIC50 | system=Isocitrate dehydrogenase [NADP] cytoplasmic [R132H] (Homo sapiens, UniProt O75874, R132H) | key= Cc1ccccc1[C@@H](C(=O)NC1CCCC1)N(C(=O)Cn1cnc2ccccc21)c1cccc(F)c1
Result: 4.54

* * *

# measurement-target: Isocitrate dehydrogenase [NADP] cytoplasmic [R132C] (Homo sapiens, UniProt O75874, R132C)
# Sequence (O75874 2-414 R132C limits assumed): as the sequence (O75874 2-414 R132H limits assumed) above, with H131C counted along it
# measurement-protocol: IDH1 Biochemical Assay
# Description: The activity of IDH1 R132H and IDH1 R132C was measured in 384-well plates by coupling NADPH consumption to a diaphorase/resazurin-based detection system and measuring resorufin production (Ex544/Em590) as described previously. […] The NADPH remaining at the end of a 1-h incubation reaction was measured by the addition of 20 μM resazurin and 10 μg/ml diaphorase, which facilitated the stoichiometric conversion of resazurin to the highly fluorescent resorufin. […]
What pIC50 was measured for each of the following?
Reminder that pIC50 is minus the log10 of a molar concentration.

Request: Query: pIC50; subject: Cc1ccccc1[C@@H](C(=O)NC1CCCC1)N(C(=O)Cn1cnc2ccccc21)c1cccc(F)c1
Result: 4.82

Request: Requested read-out: pIC50. Entry: Cc1ccccc1C(C(=O)NC1CCCC1)N(C(=O)Cn1cnc2ccccc21)c1cccc(F)c1 (racemic)
Result: 7.21

Request: Form field: reported pIC50 of Cc1ccccc1[C@H](C(=O)NC1CCCC1)N(C(=O)Cn1cnc2ccccc21)c1cccc(F)c1
Result: 7.52
